// data source = PubChem BioAssay (NCI)

Tested on: SF-268 CNS
protocol.text: NCI-60 one-dose screen, 48 h (100 = growth as untreated, 0 = no growth, -100 = all killed)
stated.conditions: 10 µM
Compounds without any hit were thinned out: in the full panel of roughly 83,000, 20% have a hit.
# true = growth below 20% (exclusive); false = growth at/above 20%

compound: O=C(Nc1ccc(F)cc1)c1cc2ccccc2cc1O
target.desc: SF-268 CNS
category.label: false
//
compound: COc1ccc2c(c1)C(=O)/C(=C/c1cccc(OCC(=O)c3ccc([N+](=O)[O-])cc3)c1)CO2
target.desc: SF-268 CNS
category.label: false
//
compound: CCOC(=O)c1cc(C(=O)c2ccc(Cl)cc2)n2ccc(-c3cc[n+](CC(=O)c4ccc(OC)cc4)cc3)cc12
target.desc: SF-268 CNS
category.label: false
//
compound: COc1ccccc1/C=N\N/C(N)=N\N=C\c1ccccc1OC
target.desc: SF-268 CNS
category.label: false
//
compound: CC1=CC2C(C(O)CC3(C)C2CC(C)C32OCOC23COCO3)C2(C)C/C(=C/O)C(=O)C=C12 (stereo not drawn)
target.desc: SF-268 CNS
category.label: false
//
compound: O=C(/C=C/c1cccc(B(O)O)c1)c1cccc(B(O)O)c1
target.desc: SF-268 CNS
category.label: true
//
compound: COc1cc2c(cc1OC)C(C(CCCCCC(CCC(C)C)C1NCCc3cc(OC)c(OC)cc31)CCC(C)C)NCC2 (stereo not drawn)
target.desc: SF-268 CNS
category.label: true
